study target: CYP2C9 (Homo sapiens, UniProt P11712)
Sequence (P11712 whole entry): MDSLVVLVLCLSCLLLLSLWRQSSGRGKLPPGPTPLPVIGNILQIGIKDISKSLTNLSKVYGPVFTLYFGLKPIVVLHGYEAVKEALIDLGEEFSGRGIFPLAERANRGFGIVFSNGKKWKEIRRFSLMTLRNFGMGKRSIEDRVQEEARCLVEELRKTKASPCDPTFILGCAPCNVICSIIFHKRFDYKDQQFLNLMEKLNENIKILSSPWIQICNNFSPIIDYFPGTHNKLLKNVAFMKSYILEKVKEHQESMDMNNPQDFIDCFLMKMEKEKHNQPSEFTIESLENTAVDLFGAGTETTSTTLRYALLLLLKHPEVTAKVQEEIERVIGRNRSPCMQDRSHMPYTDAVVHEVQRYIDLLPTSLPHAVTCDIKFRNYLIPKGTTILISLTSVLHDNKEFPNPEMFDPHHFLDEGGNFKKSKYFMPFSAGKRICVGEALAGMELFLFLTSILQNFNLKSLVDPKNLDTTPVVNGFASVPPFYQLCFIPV
assay: Inhibition of human liver CYP2C9 at 10 uM
Type: ADME
measured attribute: inhibition at 10 µM (%)
Record the value in %, omitting the unit from your answer.

Problem: Look up and state reported inhibition at 10 µM for CSc1nc(-c2ccc(F)cc2)c(-c2ccnc(NC(C)=O)c2)n1CCOCCO
Solution: 18.5

More entries:
Problem: Look up and state reported inhibition at 10 µM for CSc1nc(-c2ccc(F)cc2)c(-c2ccnc(NC(C)=O)c2)n1CCN1CCCCC1
Solution: 5

Problem: Look up and state reported inhibition at 10 µM for COCCn1c(SC)nc(-c2ccc(F)cc2)c1-c1ccnc(NC(C)=O)c1
Solution: 23.5

====

study target: Mitogen-activated protein kinase 14 (Homo sapiens)
Sequence (Q16539 whole entry): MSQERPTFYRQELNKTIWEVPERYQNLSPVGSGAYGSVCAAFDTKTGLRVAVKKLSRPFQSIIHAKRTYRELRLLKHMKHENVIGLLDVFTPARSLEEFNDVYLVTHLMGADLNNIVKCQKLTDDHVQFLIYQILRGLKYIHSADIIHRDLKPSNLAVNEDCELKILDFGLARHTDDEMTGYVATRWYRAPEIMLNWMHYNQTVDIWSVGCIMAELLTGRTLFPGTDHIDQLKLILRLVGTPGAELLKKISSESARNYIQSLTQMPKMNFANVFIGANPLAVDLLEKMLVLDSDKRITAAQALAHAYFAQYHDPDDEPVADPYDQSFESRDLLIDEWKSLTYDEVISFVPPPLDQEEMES
assay: Inhibition of mitogen-activated protein kinase p38 alpha
measured attribute: pIC50
pIC50 (log units): -log10 of the concentration in mol/L.

A selection of reference data follows.
Problem: Look up and state reported pIC50 for CSc1nc(-c2ccc(F)cc2)c(-c2ccnc(NC(C)=O)c2)n1CCN1CCOCC1
Solution: 5.69

Problem: Look up and state reported pIC50 for CC(=O)Nc1cc(-c2c(-c3ccc(F)cc3)nc(SCCC(=O)N3CCOCC3)n2CCCO)ccn1
Solution: 5.02

Problem: Look up and state reported pIC50 for COC(Cn1c(SC)nc(-c2ccc(F)cc2)c1-c1ccnc(NC(C)=O)c1)OC
Solution: 5.39

More entries:
Problem: Look up and state reported pIC50 for C#CCOCCn1c(SCc2ccc([S+](C)[O-])cc2)nc(-c2ccc(F)cc2)c1-c1ccnc(NC(C)=O)c1 (configuration not stated)
Solution: 5.30

Problem: Look up and state reported pIC50 for CSCCn1c(SCc2ccc([S+](C)[O-])cc2)nc(-c2ccc(F)cc2)c1-c1ccnc(NC(C)=O)c1 (configuration not stated)
Solution: 5.62

Problem: Look up and state reported pIC50 for CSc1nc(-c2ccc(F)cc2)c(-c2ccnc(NC(C)=O)c2)n1CCOCCO
Solution: 5.07

Problem: Look up and state reported pIC50 for COCCn1c(SC)nc(-c2ccc(F)cc2)c1-c1ccnc(NC(C)=O)c1
Solution: 6.66

Problem: Look up and state reported pIC50 for COCCn1c(SCCC(=O)N2CCOCC2)nc(-c2ccc(F)cc2)c1-c1ccnc(NC(C)=O)c1
Solution: 6.34
